Data origin: PubChem BioAssay AID652217

target-under-test: NEDD8-conjugating enzyme Ubc12 (Homo sapiens) + NEDD8-activating enzyme E1 regulatory subunit (Homo sapiens) (UniProt P61081+Q13564)
Sequence (P61081 whole entry, looked up): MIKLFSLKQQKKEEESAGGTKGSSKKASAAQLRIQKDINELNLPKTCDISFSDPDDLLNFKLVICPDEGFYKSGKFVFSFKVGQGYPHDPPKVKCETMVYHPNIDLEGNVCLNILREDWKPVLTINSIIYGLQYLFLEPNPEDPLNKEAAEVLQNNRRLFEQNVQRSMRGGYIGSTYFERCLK
Sequence (Q13564 whole entry, looked up): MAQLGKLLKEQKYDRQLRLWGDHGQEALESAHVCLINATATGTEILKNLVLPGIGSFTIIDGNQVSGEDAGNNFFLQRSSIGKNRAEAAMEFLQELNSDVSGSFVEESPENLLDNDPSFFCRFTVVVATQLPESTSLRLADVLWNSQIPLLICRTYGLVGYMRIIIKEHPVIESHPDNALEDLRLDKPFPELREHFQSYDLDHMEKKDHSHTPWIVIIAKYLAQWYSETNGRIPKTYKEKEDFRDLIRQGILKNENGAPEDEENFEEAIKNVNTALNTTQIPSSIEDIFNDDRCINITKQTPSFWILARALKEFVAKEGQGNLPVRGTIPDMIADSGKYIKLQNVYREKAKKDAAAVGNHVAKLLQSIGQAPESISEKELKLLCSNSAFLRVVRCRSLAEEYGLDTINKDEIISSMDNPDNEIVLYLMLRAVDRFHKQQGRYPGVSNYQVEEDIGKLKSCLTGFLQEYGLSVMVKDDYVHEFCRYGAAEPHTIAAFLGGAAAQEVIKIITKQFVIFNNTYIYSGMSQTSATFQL
method-description: blockade of NEDD8 conjugation to cullin – biochemical, TR-FRET, single concentration, confirmation (AID 652217);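 also: neddylation substrate is the cullin 1 ring ligase complex with SKP2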
condition-context: TR-FRET cullin neddylation biochemical assay; at 25 µM; stronger effect = higher value
The campaign covered roughly 1,800 compounds. About 240 (13%) were called active. Only a sample is shown.
measure: inhibition (%)
Answers are plain numbers, in %.

Some compounds with known inhibition results, for comparison:
COc1cccc(Cn2cc(/C=N/NC(=O)c3cc(O)cc(O)c3)c3ccccc32)c1 = 41.7
CCN(/N=C/c1ccc(N(C)C)cc1)c1nc2ccccc2[nH]1 = 42.9
Cc1ccc2occ(/C=N/NC(=O)c3ccccc3C)c(=O)c2c1 = 24
O=C(N/N=C/c1ccccc1O)C1CCCC1 = 38.7
COc1cccc(/C=C/C(=O)OCC(=O)N2CCCc3ccccc32)c1 = 38.8

Give inhibition for each listed item.
1. CCN(CC)c1ccc(/C=N/Nc2nc(C)cc(=O)[nH]2)cc1
2. CN(C)c1ccc(/C=N/Nc2cc(N3CCOCC3)nc(N3CCOCC3)n2)cc1
3. CCOc1ccc2nc(NCCNC(=O)C(C)(C)C)c(C)cc2c1
4. O=C(NNC(=S)NC1CC2CCC1C2)c1ccc(Cl)cc1 (centres undefined)
5. CCOC(=O)c1cnc2nc(SCc3ccccc3Cl)[nH]n2c1=O
6. Cc1ccc2cc(C#N)c(NCCNC(=S)NCCCN3CCOCC3)nc2c1

Result:
[28.2, 14.8, 34.1, 7.17, 20, 33.7]

Give inhibition for each listed item.
1. COc1cc2cc(C(=O)N/N=C/c3cccc(OC)c3OC)[nH]c2cc1OC
2. COc1ccc(N(CC(=O)N/N=C/c2cccc3c2OCCO3)S(=O)(=O)c2ccc(NC(C)=O)cc2)cc1
3. O=c1c2c(nc3cc(-c4cccc(Cl)c4)[nH]n13)CCCC2
4. Cc1nc2sc(C(=O)c3ccccc3)c(N)c2c2c1CCCC2
5. CCOc1cc(/C=N/Nc2cc(C)nc3ccc(C)cc23)ccc1O
6. O=C1c2cccc3cccc(c23)N1CN1CCN(c2ccccn2)CC1

Result:
1: 41.9; 2: 42.7; 3: -10.4; 4: 30.6; 5: 40.1; 6: 28.8

Give inhibition for each listed item.
1. Cc1noc(C)c1C(=O)OCC(=O)/C=C1\N(C)c2ccccc2C1(C)C
2. COc1ccc(Br)cc1/C=N/Nc1ccc(Cl)c(C(=O)O)c1
3. CCN(CC)c1ccc(/C=N/NC(=O)CNC(=O)c2cccs2)cc1
4. NNC(=O)c1oc2nc(-c3ccccc3)cc(-c3ccco3)c2c1N
5. O=C(/C=C/c1cn(-c2ccccc2)nc1-c1ccc2c(c1)OCCO2)NCCCN1CCOCC1
6. CC(=O)Oc1c(C(=O)c2nnc(C)o2)c(=O)n(Cc2ccccc2)c2ccccc12

Result:
22.3
37.5
54.1
14.3
33.2
38.8

Give inhibition for each listed item.
1. CCOc1ccc2[nH]c(C(=O)N/N=C/c3cccc(OC)c3OC)cc2c1
2. c1ccc(-c2[nH]ncc2-c2nc3ccccc3[nH]2)cc1
3. CCOc1ccc2[nH]c(=O)c(CN(Cc3nnnn3CCc3ccccc3)CC3CCCO3)cc2c1 (centres undefined)
4. O=C(O)c1ccc2c(=O)n3c(nc2c1)/C(=C/c1ccc(OC(F)F)cc1OC(F)F)CC3
5. Cc1ccc(-n2ncc3c(Nc4cccc(C(=O)O)c4)ncnc32)cc1

Result:
44.6
34.5
12.7
43.2
35.6

Give inhibition for each listed item.
1. COC(=O)C1=CN(C)C=C(C(=O)OC)C1c1ccc(Cl)cc1Cl
2. CS(=O)(=O)c1ccc2nc(NC(=O)c3ccc(Cl)nc3)sc2c1
3. COc1ccc(C2c3[nH]c4ccccc4c3CCN2CCCn2cccn2)cc1C (centres undefined)
4. C[C@H](O)[C@@H]1C(=O)N2CCc3c([nH]c4ccccc34)[C@@H]2C[C@@H]1N(C)C(=O)Nc1ccc(F)cc1
5. COc1cc2ccccc2cc1C(=O)Nc1ccncc1
6. CCOCCCNC(=O)C(NC(=O)c1ccccc1O)c1ccccc1 (centres undefined)

Result:
20
66
29.8
14.4
39.2
39.4
